# Tested on: T-47D breast
# Assay Comment: NCI-60 one-dose screen, 48 h
# Condition Summary: 10 µM unless noted
The panel holds about 83,000 compounds, 20% with a hit somewhere; the sample as a whole holds those more often. Calls of active or inactive are those of the source. The calls were made as follows: active = growth percent below 10; inactive = the rest.
Outcome codes: active, inactive

- Compound: "Cc1cc(N2CCN(C)CC2)nc(NC2CCCC(Nc3ccnc4cc(Cl)ccc34)C2)n1 (centres undefined)"
  Group: "active"
- Compound: "COc1cc(C=Nc2oc(-c3ccccc3)c(-c3ccccc3)c2C#N)cc(CN2CCCCC2)c1O"
  Group: "inactive"
- Compound: "CC(=O)c1nc2ccccc2n1CC(=O)c1cccc(Cl)c1"
  Group: "active"
- Compound: "O=C(COc1ccc(/C=C2\\COc3ccccc3C2=O)cc1)Nc1nccs1"
  Group: "inactive"
- Compound: "COc1cccc(-c2nn(C(C)(C)C)cc2-c2ccnc(NCCCNS(=O)(=O)c3ccc(C)cc3)c2)c1"
  Group: "inactive"
- Compound: "COc1ccc(-c2nn(-c3ccc(Cl)cc3)cc2-c2nc3ccccc3[nH]2)cc1"
  Group: "inactive"
- Compound: "Cn1ncc2c(=O)nc3c(-c4ccccc4)n[nH]n3c21"
  Group: "inactive"
- Compound: "COc1ccc(CN2c3ccccc3Oc3ccccc32)cc1F"
  Group: "inactive"
- Compound: "COc1ccc(C(=O)COc2ccc(/C=C3\\Oc4ccc(OC)cc4C3=O)cc2)cc1"
  Group: "inactive"
- Compound: "O=C(Cn1cccc(Nc2ccccc2)c1=O)Nc1ccccc1"
  Group: "inactive"
- Compound: "CS(=O)(=O)c1ccc(-n2nc(-c3ccc(Br)cc3)c3ccccc3c2=O)cc1"
  Group: "inactive"
- Compound: "Cc1cc(C)nc(SC2=C(Nc3cccc(Cl)c3C)C(=O)N(Cc3ccccc3)C2=O)n1"
  Group: "inactive"
- Compound: "CC(=O)O[C@H]1C(=O)[C@@]2(C)[C@H]([C@H](OC(=O)c3ccccc3)[C@]3(O)C[C@H](OC(=O)[C@H](OC(=O)CCC(=O)OC4CCC(S/N=C(N)/N=C(\\N)N(C)C)CC4)[C@@H](NC(=O)c4ccccc4)c4ccccc4)C(C)=C1C3(C)C)[C@]1(OC(C)=O)CO[C@@H]1C[C@@H]2O (some centres undefined)"
  Group: "inactive"
- Compound: "C=CC(=O)Nc1cccc(-c2nc(SC)nc(NCc3ccccc3)c2C#N)c1"
  Group: "inactive"
- Compound: "Oc1ccccc1-c1nnc(CNc2ccc(Cl)cc2)o1"
  Group: "inactive"
- Compound: "COC(=O)c1cccc(NC(=O)c2ccc(-c3cccc(N)c3)o2)c1"
  Group: "inactive"
- Compound: "CCOc1ccc(-n2nc(C(=O)Nc3cc(OC)c(OC)c(OC)c3)nc2-c2cc(OC)c(OC)c(OC)c2)cc1"
  Group: "inactive"
- Compound: "CCCCn1c(-c2ccc(C(=O)O/N=C(\\N)c3ccc4ccccc4c3)cc2)nc(-c2ccccc2)c1-c1ccccc1"
  Group: "inactive"
- Compound: "O=Nc1c(O)c(Cl)cc2ccccc12"
  Group: "active"

###

# Test system: OVCAR-5 ovarian
# Assay Comment: NCI-60 one-dose screen, 48 h (100 = growth as untreated, 0 = no growth, -100 = all killed)
# Condition Summary: 10 µM unless noted
The panel holds about 83,000 compounds, 20% with a hit somewhere; the sample as a whole holds those more often. Activity calls are given as the source filed them. Rule for the calls: active = growth percent below 10; inactive = the rest.
Examples of compounds with documented growth follow.

- Compound: "OCc1ccc(N2CCc3cccc(F)c3C2)cc1Cl"
  Target System: "OVCAR-5 ovarian"
  growth: "-11.7% [0.1 µM] (active)"
- Compound: "COc1cc2nc(N3CCCC3)nc(NCC3CCCCC3)c2cc1OC"
  Target System: "OVCAR-5 ovarian"
  growth: "29.1% (inactive)"
- Compound: "COC(=O)[C@]12CCC(C)(C)C[C@H]1[C@H]1C(=O)C[C@@H]3[C@@]4(C)c5c([nH]c6ccccc6c5=O)C(C)(C)[C@@H]4CC[C@@]3(C)[C@]1(C)CC2"
  Target System: "OVCAR-5 ovarian"
  growth: "80.7% (inactive)"
- Compound: "COc1ccc(-c2nc3ccc(-c4nc5ccc(N6CCN(c7ccccc7)CC6)cc5[nH]4)cc3[nH]2)cc1OC"
  Target System: "OVCAR-5 ovarian"
  growth: "-44.1% (active)"
- Compound: "CCCCC[C@H]1C/C=C2/C(=O)C=C[C@@H]2C/C=C\\CCCC(=O)O1"
  Target System: "OVCAR-5 ovarian"
  growth: "-9.16% (active)"
- Compound: "COc1cc2c(cc1-c1c(C)noc1C)ncc1nc(C3CCC(F)(F)CC3)n([C@H](C)COC(F)F)c12"
  Target System: "OVCAR-5 ovarian"
  growth: "82.5% (inactive)"
- Compound: "C=CC(=O)Nc1cccc(-c2nc(SC)nc(NCCN3CCOCC3)c2C#N)c1"
  Target System: "OVCAR-5 ovarian"
  growth: "107% (inactive)"
- Compound: "O=C(Nc1ccc(Cl)cc1)c1cc2cc(F)ccc2cc1O"
  Target System: "OVCAR-5 ovarian"
  growth: "29.9% (inactive)"
- Compound: "Nc1ccc(-c2cc3c(NCc4ccccc4)ncnc3s2)cc1"
  Target System: "OVCAR-5 ovarian"
  growth: "77% (inactive)"
- Compound: "COc1ccc(/C=C/C(=O)c2ccc(O)c(CN3CCN(c4cc5c(cc4F)c(=O)c(C(=O)O)cn5C4CC4)CC3)c2)cc1"
  Target System: "OVCAR-5 ovarian"
  growth: "47.5% (inactive)"
- Compound: "COc1cccc(/C=N/NC(=O)c2ccccc2Nc2ccnc(C(F)(F)F)c2)c1O"
  Target System: "OVCAR-5 ovarian"
  growth: "20.7% (inactive)"
- Compound: "CC[C@@H]1O[C@H](O[C@@H](c2cnc[nH]2)[C@H](NC(=O)c2nc([C@H](CC(N)=O)NC[C@@H](N)C(N)=O)nc(N)c2C)C(=O)N[C@H](C)[C@H](O)[C@H](C)C(=O)N[C@@H](C(=O)NCCc2nc(-c3nc(C(=O)NCCCCN=C(N)N)cs3)cs2)[C@@H](C)O)[C@H](O[C@@H]2O[C@H](CO)[C@H](O)[C@H](OC(N)=O)[C@@H]2O)[C@H](C)[C@@H]1C"
  Target System: "OVCAR-5 ovarian"
  growth: "59.5% (inactive)"
- Compound: "COc1cc(/C=C/c2cc(/C=C/c3ccc(O)c(OC)c3)n(-c3c(Cl)cccc3Cl)c(=O)n2)ccc1O"
  Target System: "OVCAR-5 ovarian"
  growth: "57.6% (inactive)"
- Compound: "COc1ccc2c(c1)C(=O)/C(=C/c1ccccn1)CC2"
  Target System: "OVCAR-5 ovarian"
  growth: "92.1% (inactive)"
- Compound: "COc1cc(-c2nc(C(=O)NCC(=O)NO)nn2-c2ccc(Cl)cc2)cc(OC)c1OC"
  Target System: "OVCAR-5 ovarian"
  growth: "93.3% (inactive)"
- Compound: "CCOC(=O)n1cc(-c2nonc2-c2cn(C)c3ncccc23)c2ccccc21"
  Target System: "OVCAR-5 ovarian"
  growth: "94.2% (inactive)"
- Compound: "CNC(=O)c1cc(Oc2ccc(NC(=O)Nc3ccc(Cl)c(OC(F)(F)F)c3)c(F)c2)ccn1"
  Target System: "OVCAR-5 ovarian"
  growth: "56.7% (inactive)"
- Compound: "CN(C)CCCNc1c2ccccc2nc2ccccc12"
  Target System: "OVCAR-5 ovarian"
  growth: "97.9% (inactive)"
- Compound: "c1ccc2[nH]c(-c3ccc(Nc4nc(N5CCCC5)nc5[nH]ncc45)cc3)nc2c1"
  Target System: "OVCAR-5 ovarian"
  growth: "17.9% (inactive)"
- Compound: "CC[C@@H](C(=O)[C@@H](C)[C@@H](O)[C@H](C)[C@@H]1O[C@@H]([C@@H](CC)C(=O)O)CC[C@@H]1C)[C@H]1OC2(C=C[C@@H](O)[C@]3(CC[C@@](C)([C@H]4CC[C@](O)(CC)[C@H](C)O4)O3)O2)[C@H](C)C[C@@H]1C (stereo not given in full)"
  Target System: "OVCAR-5 ovarian"
  growth: "57.7% (inactive)"
- Compound: "O=C(O)COc1ccc(Cl)cc1C1CCCCC1"
  Target System: "OVCAR-5 ovarian"
  growth: "107% (inactive)"
- Compound: "COc1cccc(C2=NN3C(C2)c2cc(Br)cc(OC)c2OC32CCN(Cc3ccccc3)CC2)c1 (stereo not given)"
  Target System: "OVCAR-5 ovarian"
  growth: "105% (inactive)"
- Compound: "CN(C)S(=O)(=O)c1cccc(-c2nc3sc4c(c3c(=O)[nH]2)CCCC4)c1"
  Target System: "OVCAR-5 ovarian"
  growth: "23.3% (inactive)"
- Compound: "Cc1ccc2c(c1)C(=O)/C(=C/c1cccc(OCC(=O)c3ccc(Cl)cc3)c1)CS2"
  Target System: "OVCAR-5 ovarian"
  growth: "105% (inactive)"
- Compound: "O=C1Nc2ccc(Br)cc2C12Oc1ccccc1C1CC(c3ccc(F)cc3)=NN12 (stereo not given)"
  Target System: "OVCAR-5 ovarian"
  growth: "111% (inactive)"
- Compound: "CC(C)CSc1nc(N)nc2c1ncn2C1OC(CO)C(O)C1O (stereo not given)"
  Target System: "OVCAR-5 ovarian"
  growth: "93% (inactive)"
- Compound: "CSc1nc(NCCN2CCOCC2)c(C#N)c(-c2cccc([N+](=O)[O-])c2)n1"
  Target System: "OVCAR-5 ovarian"
  growth: "96.2% (inactive)"
- Compound: "CCc1nc(N)nc(N)c1C#CC(C)c1cc(-c2ccnc(C)c2)c2oc(C)nc2c1 (stereo not given)"
  Target System: "OVCAR-5 ovarian"
  growth: "36.8% (inactive)"
- Compound: "COc1cccc(-c2nc3sccn3c2-c2ccnc(NCCCNS(=O)(=O)c3cccc(F)c3)c2)c1"
  Target System: "OVCAR-5 ovarian"
  growth: "59.4% (inactive)"
- Compound: "FC(F)(F)c1ccc(-c2cn3nc(-c4c[nH]c5ccc(Br)cc45)sc3n2)cc1"
  Target System: "OVCAR-5 ovarian"
  growth: "95.5% (inactive)"
- Compound: "CCCn1c(=O)[nH]c(N)c([C@H]2c3ccccc3Oc3[nH]c(=O)n(CCC)c(=O)c32)c1=O"
  Target System: "OVCAR-5 ovarian"
  growth: "99.4% (inactive)"
- Compound: "O=C(CCCCC(=O)N/N=C\\c1ccccc1O)N/N=C\\c1ccccc1O"
  Target System: "OVCAR-5 ovarian"
  growth: "59% (inactive)"
- Compound: "CCOc1ccc(C(C)=O)cc1NC(=O)c1cccc(-c2nnn(CC)n2)c1"
  Target System: "OVCAR-5 ovarian"
  growth: "66.5% (inactive)"
- Compound: "CC(=O)OCCC/C(=C/c1cc2ccccc2c2ccccc12)[N+](=O)[O-]"
  Target System: "OVCAR-5 ovarian"
  growth: "-95.1% (active)"
- Compound: "CSc1nc2c(c(=O)[nH]1)C1(C(=O)Nc3ccccc31)c1c(nc(SC)[nH]c1=O)N2"
  Target System: "OVCAR-5 ovarian"
  growth: "93.9% (inactive)"

Each recorded value in this set is attributed to PubChem BioAssay (NCI).
